- Study System: TrkA protein on HEK-293T-TrkA cells or NIH-3T3-TrkA cells (human, UniProt P04629 33-796)
- Sequence (P04629 33-796): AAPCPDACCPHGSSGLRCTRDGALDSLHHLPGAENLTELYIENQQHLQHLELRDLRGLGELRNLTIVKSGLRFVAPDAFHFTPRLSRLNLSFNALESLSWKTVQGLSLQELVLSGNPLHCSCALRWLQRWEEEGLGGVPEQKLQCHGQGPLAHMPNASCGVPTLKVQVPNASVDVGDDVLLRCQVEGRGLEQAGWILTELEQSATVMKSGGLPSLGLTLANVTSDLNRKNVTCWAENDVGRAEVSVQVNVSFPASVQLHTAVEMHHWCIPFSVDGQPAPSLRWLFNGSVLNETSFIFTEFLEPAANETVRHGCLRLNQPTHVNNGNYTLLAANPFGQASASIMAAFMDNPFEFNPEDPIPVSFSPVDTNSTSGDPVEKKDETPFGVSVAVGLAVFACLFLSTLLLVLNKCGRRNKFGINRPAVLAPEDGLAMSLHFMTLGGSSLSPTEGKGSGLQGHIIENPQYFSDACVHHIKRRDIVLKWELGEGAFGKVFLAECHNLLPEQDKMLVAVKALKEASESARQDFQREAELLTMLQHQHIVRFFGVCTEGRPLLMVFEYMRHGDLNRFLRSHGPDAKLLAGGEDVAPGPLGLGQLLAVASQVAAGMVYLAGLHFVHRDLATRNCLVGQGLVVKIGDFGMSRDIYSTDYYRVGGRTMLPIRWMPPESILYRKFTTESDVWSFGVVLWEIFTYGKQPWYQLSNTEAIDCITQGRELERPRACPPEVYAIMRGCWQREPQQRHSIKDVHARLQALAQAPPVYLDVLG
- Test Description: cell-based or functional assay
Quantity Measured: IC50; p-TrkA level by AlphaLISA in NGF-stimulated NIH3T3-TrkA stable cell line (mg/L)
The response must be a number in mg/L with no trailing unit.

1B9 chimeric antibody (antibody, human IgG4 S228P, kappa, F234A L235A, V domains shown, expressed in CHO cells) VH: QVHLQQSGAELMKPGASVKISCKATGYTFNIYWIDWVKQRPGHGLEWIGEILPGSGNTHYNENFKGKATMTADTSSNTAYMQLTSLTSEDSAVYYCARTDGRGYFDYWGQGTTLTVSS VL: DIVLTQSPASLVVSLGQRATISCRTSKSVSSSAYSYMHWYQQKPGQPPKVLIYLASNLESGVPARFSGSGSGTDFTLNIHPVEEEDAATYYCQHSRELPFTFGSGTKLEIKR	0.0473

23E12 chimeric antibody (antibody, human IgG4 S228P, kappa, F234A L235A, V domains shown, expressed in CHO cells) VH: QVQLQQSGAELVRPGTSVKISCKASGYAFTNYWLGWMKQRPGHGLEWIGDFYPRTGNTFYNENFKGKVTLTADKSSNTAYMQLSSLTSEDSAVYLCARAGTGFDYWGQGTTLTVSS VL: SIVMTQSPKSMSMSVGERVTLSCKASENVGGYVSWYQQKPDQSPKLLIYGASSRHTGVPDRFTGSGSETDFTLTISSVQAEDLAAYHCGQNYIYPFTFGGGTKLEIKR yielded IC50; p-TrkA level by AlphaLISA in NGF-stimulated NIH3T3-TrkA stable cell line of 0.0537

2008 chimeric antibody (antibody, human IgG4 S228P, kappa, F234A L235A, V domains shown, also called 20C8) VH: EVLLQQSGPELVKPGASMKISCKASVYSFTAYTMNWVKQSHGKNLEWIGLINPHNGGTRYNQKFKGKATLTLDKSSSTAYMDLLSLTSEDSAVYYCAISRYGSSSFYFDVWGAGTTVAVSS VL: QIVLSQSPAILSASPGEKVTMTCRASSSISYMHWYQQKPGSSPKPWISATSNLASGVPARFSGSGSGTSYSLTISGVEAEDAATYYCQQWSSNPPTFGGGTNLEIKR yielded IC50; p-TrkA level by AlphaLISA in NGF-stimulated NIH3T3-TrkA stable cell line of 0.11
